Hi there, I'd appreciate the recorded TGI for every entry that follows.
- System: A549 NSCLC
- PROTOCOL DESCRIPTION: NCI tumour cell line growth inhibition, 48 h
Give bare numbers, in µM.

Check out these entries, answers already filled in.
{"MOLECULE": "Nc1ccc2nc(Nc3ccc(Cl)c(Cl)c3)cnc2c1", "MEASURED METRIC": "TGI", "NUMERIC RESULT": 41.9}
{"MOLECULE": "CCCCCCCN(CCCCCCC)C(=N)c1ccnc2ccccc12", "MEASURED METRIC": "TGI", "NUMERIC RESULT": 3.41}
{"MOLECULE": "COc1cccc2c1C(=O)c1c(O)c3c(c(O)c1C2=O)C[C@@](O)(C(C)=O)C[C@@H]3OC1CC([N+]([O-])(Cc2ccccc2)Cc2ccccc2)C(O)C(C)O1 (stereo not given in full)", "MEASURED METRIC": "TGI", "NUMERIC RESULT": 5.18}
{"MOLECULE": "CCN(CC)CCC(=O)OC1C(C)=CC(C)C(=O)CC(C(C)CC2CCC(O)C(OC)C2)OC(=O)C2CCCCN2C(=O)C(=O)[C@@]2(O)OC(CCC2C)CC(OC)\\C(C)=C/C=C/C=C/C(C)CC(C)C(=O)C1OC (stereo not given in full)", "MEASURED METRIC": "TGI", "NUMERIC RESULT": 16.6}

Consider the following items and state reported TGI for each.
1. c1ccc2cc(Cn3cc[n+](Cc4ccc5ccccc5c4)c3)ccc2c1
2. COc1ccc(C(=O)c2c(-c3ccccc3NC(=O)C(F)(F)F)[nH]c3ccccc23)cc1
3. COC1=CC(=O)c2c(cc(COP(N)(=O)N(CCCl)CCCl)n2C)C1=O (stereo not given)
4. c1ccc2[nH]c3c(N=NC4=NCCN4)c4ccccc4c-3nc2c1

result:
1. 22.9
2. 20.2
3. 4.31
4. 16.8

====

- Test system: KM12 colon
- PROTOCOL DESCRIPTION: NCI tumour cell line growth inhibition, 48 h
Hi there, I'd appreciate the recorded GI50 for every entry that follows.

Consider the following items and state reported GI50 for each.
1. CCN(CC)CCCOc1ccc2ncnc(Nc3ccc(Oc4cccc(C(F)(F)F)c4)c(Cl)c3)c2c1
2. Cn1cc(-c2nc(-c3c[nH]c4ccncc34)cs2)c2ccccc21
3. O=C1OCC(c2ccc(O)cc2)=C1c1cc(O)c(O)c(O)c1
4. Oc1[nH]c(N=C2N=c3ccccc3=N2)c2ccccc12
5. Clc1ccccc1[C@@H]1C[C@@H]2Cc3cc(Br)c4ccccc4c3N1O2

result:
1. 1.77 µM
2. 1.11 µM
3. 89.3 µM
4. 11.5 µM
5. 4.23 µM

Consider the following items and state reported GI50 for each.
1. COc1ccc(OC)c(NC(=O)c2cccc(NC3=C(Cl)C(=O)N(Cc4ccccc4)C3=O)c2)c1
2. COc1cc(OC)c(/C=C/C(=O)c2ccc(Nc3ncnc4ccccc34)cc2)c(OC)c1
3. C=C1C(=O)O[C@H]2[C@H]1CC/C(COC(=O)c1cn(C)c3ccccc13)=C\CC[C@@]1(C)O[C@@H]21
4. CC(CN(C)C)S(=O)(=O)c1ccc(-c2cnc(N)c(C(=O)Nc3ccccc3)n2)cc1 (stereo unspecified)
5. C=C(C)[C@@H]1C/C=C(/CO)CC[C@H]2O[C@]2(C)CC/C=C(\C)CC1
6. C[C@]12CC[C@@H]3c4ccc(O)cc4CC[C@H]3[C@@H]1CC[C@@H]2NS(=O)(=O)c1cccc(Cl)c1

result:
["> 100 µM", "0.51 µM", "1.83 µM", "11.1 µM", "16.1 µM", "1.96 µM"]

====

- System: SF-295 CNS
- PROTOCOL DESCRIPTION: NCI tumour cell line growth inhibition, 48 h
Hi there, I'd appreciate the recorded GI50 for every entry that follows.

Check out these entries, answers already filled in.
{"COMPOUND": "C[C@]12CC[C@@H]3c4ccc(O)cc4CC[C@H]3[C@@H]1CC[C@@H]2NS(=O)(=O)c1cccc(Cl)c1", "GI50": "3.1 µM"}
{"COMPOUND": "COc1cccc(Sc2ccc([N+](=O)[O-])c3no[n+]([O-])c23)c1", "GI50": "24.5 µM"}
{"COMPOUND": "COC12C=C/C(=C(/C(=O)OCCSc3ccnn3C)C(=O)CCCCCCCCC3(OC)C=C/C(=C(/C(=O)OCCSc4ccnn4C)C(=O)CCCCCCCC1)O3)O2", "GI50": "0.948 µM"}

Consider the following items and state reported GI50 for each.
1. Cc1ccc(-c2c(C#N)[n+](=O)c3cc(F)c(F)cc3n2[O-])cc1
2. c1ccc2cc(Cn3cc[n+](Cc4ccc5ccccc5c4)c3)ccc2c1
3. COC1CC(C)C(OC)c2cc(O)cc(c2O)NC(=O)/C(C)=C/C=C\C(C)C(OC(N)=O)/C(C)=C\C(C)C1OC (stereo unspecified)
4. O=c1cc(-c2ccccc2)oc2ccc(OC/C(=N/O)c3ccc(F)cc3)cc12
5. C=C1C(=O)O[C@H]2[C@H]1CC/C(Cn1cc(Cc3c[nH]c4ccccc34)nn1)=C\CC[C@@]1(C)O[C@@H]21

result:
1: 2.01 µM; 2: 3.65 µM; 3: 0.665 µM; 4: 1.79 µM; 5: 4.71 µM

====

Hi there, I'd appreciate the recorded TGI for every entry that follows.
- System: NCI-H226 lung
- PROTOCOL DESCRIPTION: NCI tumour cell line growth inhibition, 48 h

{"MOLECULE": "CSc1c2c(C)n[nH]c2nn1-c1ccccc1", "TGI": "> 100 µM"}
{"MOLECULE": "COC12C=C/C(=C(/C(=O)OCCSc3ccnn3C)C(=O)CCCCCCCCC3(OC)C=C/C(=C(/C(=O)OCCSc4ccnn4C)C(=O)CCCCCCCC1)O3)O2", "TGI": "1.76 µM"}
{"MOLECULE": "O=c1/c(=C/c2c(O)ccc3ccccc23)sc2nc3ccccc3n12", "TGI": "> 100 µM"}
{"MOLECULE": "Cc1c(-c2coc(-c3ccccc3)n2)c(=O)n(-c2ccccc2)n1C", "TGI": "> 100 µM"}

Consider the following items and state reported TGI for each.
1. O=C1C(C(c2ccc([N+](=O)[O-])cc2)N2CCOCC2)=C(O)C(c2ccccc2)N1c1ccccc1 (centres undefined)
2. O=c1cc(-c2ccccc2)oc2ccc(OC/C(=N/O)c3ccc(F)cc3)cc12
3. CCn1c(-c2c(Cl)cc(O)cc2Cl)cc2c(Cl)cc(O)cc21

result:
1: > 10 µM; 2: > 50 µM; 3: > 100 µM

Consider the following items and state reported TGI for each.
1. NC(=S)Nc1ccc2c(c1)oc1ccccc12
2. C=C1C(=O)[C@]23C[C@H]1C[C@@H](O)[C@H]2[C@]1(COC3=O)[C@@H](OC(C)=O)CC[C@@](C)(COC(C)=O)[C@H]1C=O

result:
1: > 100 µM; 2: 19 µM

====

- Tested on: 786-0 renal
- PROTOCOL DESCRIPTION: NCI tumour cell line growth inhibition, 48 h
Hi there, I'd appreciate the recorded TGI for every entry that follows.
Numbers only, in µM.

Check out these entries, answers already filled in.
{"MOL SMILES": "N#C/C=c1/c2ccccc2n2nc3ccccc3c12", "STUDY SYSTEM": "786-0 renal", "NUMERIC RESULT": 19.8}
{"MOL SMILES": "CC(C)(CN1CCOCC1)C(=O)/C=C/c1ccc(/C=C/C(=O)C(C)(C)CN2CCOCC2)cc1", "STUDY SYSTEM": "786-0 renal", "NUMERIC RESULT": 4.11}

Next item in the queue.
query: Form field: reported TGI of `COc1cc(-c2nn(-c3cccc(NC(=O)NCCNS(=O)(=O)c4ccc(Cl)cc4)c3)cc2-c2ccncc2)ccc1Cl`
result: 5.78

====

Hi there, I'd appreciate the recorded TGI for every entry that follows.
- System: SNB-75 CNS
- PROTOCOL DESCRIPTION: NCI tumour cell line growth inhibition, 48 h
Numbers only, in µM.

Check out these entries, answers already filled in.
{"COMPOUND": "COc1cccc(Sc2ccc([N+](=O)[O-])c3no[n+]([O-])c23)c1", "MEASURED METRIC": "TGI", "UNIT": "µM", "NUMERIC RESULT": 39.4}
{"COMPOUND": "COc1cccc2c1C(=O)c1c(O)c3c(c(O)c1C2=O)C[C@@](O)(C(=O)CN1CCOCC1)C[C@@H]3OC1CC(N)C(O)C(C)O1 (some centres not stated)", "MEASURED METRIC": "TGI", "UNIT": "µM", "NUMERIC RESULT": 22.4}

Next item in the queue.
query: Find TGI (SNB-75 CNS) for the entry `CN(C)C(=S)/N=c1\ssc(=S)n1Cc1cccs1`
result: 15.2

src = PubChem BioAssay (NCI)
